system: Burkholderia cenocepacia; assay: Antimicrobial activity against Burkholderia cenocepacia 5007902 expressing beta-lactamase PenB4; type: functional
Mark each entry TRUE if its MIC sits below 30 µg/mL, and FALSE for all others.

Take a look at these entries with their results.
[
  {
    "MOLECULE": "CO/N=C(\\C(=O)N[C@@H]1C(=O)N2C(C(=O)O)=C(COC(C)=O)CS[C@H]12)c1csc(N)n1 [CEFOTAXIME]",
    "ASSIGNED_CLASS": "TRUE"
  },
  {
    "MOLECULE": "CO/N=C(\\C(=O)N[C@@H]1C(=O)N2C(C(=O)[O-])=C(C[N+]3(C)CCCC3)CS[C@H]12)c1csc(N)n1",
    "ASSIGNED_CLASS": "TRUE"
  },
  {
    "MOLECULE": "CO/N=C(\\C(=O)N[C@@H]1C(=O)N2C(C(=O)O)=C(COC(N)=O)CS[C@H]12)c1ccco1 [CEFUROXIME]",
    "ASSIGNED_CLASS": "FALSE"
  },
  {
    "MOLECULE": "CC(C)(O/N=C(\\C(=O)N[C@@H]1C(=O)N2C(C(=O)[O-])=C(C[n+]3ccccc3)CS[C@H]12)c1csc(N)n1)C(=O)O [CEFTAZIDIME]",
    "ASSIGNED_CLASS": "TRUE"
  },
  {
    "MOLECULE": "C[C@@H](O)[C@H]1C(=O)N2C(C(=O)O)=C(SCCNC=N)C[C@H]12 [IMIPENEM ANHYDROUS]",
    "ASSIGNED_CLASS": "TRUE"
  }
]

Consider now this further molecule.
Data request: Dear reviewer, please state whether CO[C@@]1(NC(=O)Cc2cccs2)C(=O)N2C(C(=O)O)=C(COC(N)=O)CS[C@@H]21 [CEFOXITIN] has MIC strictly beneath 30 µg/mL.
Data returned: FALSE

---

tested on: Burkholderia cenocepacia; assay: Antimicrobial activity against Burkholderia cenocepacia 09-54 expressing beta-lactamase PenB2; assay type: functional
MEASURED_METRIC: MIC (µg/mL)
The response must be a number in µg/mL with no trailing unit.

[
  {
    "MOLECULE": "C[C@@H](O)[C@H]1C(=O)N2C(C(=O)O)=C(SCCNC=N)C[C@H]12 [IMIPENEM ANHYDROUS]",
    "MIC [µg/mL]": 16
  }
]

Data request: Fill in the blank: the reported MIC of C[C@H]1[C@H](NC(=O)/C(=N\OC(C)(C)C(=O)O)c2csc(N)n2)C(=O)N1S(=O)(=O)O is ____.
Data returned: 512

Data request: Fill in the blank: the reported MIC of CO/N=C(\C(=O)N[C@@H]1C(=O)N2C(C(=O)[O-])=C(C[N+]3(C)CCCC3)CS[C@H]12)c1csc(N)n1 is ____.
Data returned: 64

Data request: Fill in the blank: the reported MIC of CO/N=C(\C(=O)N[C@@H]1C(=O)N2C(C(=O)O)=C(COC(C)=O)CS[C@H]12)c1csc(N)n1 is ____.
Data returned: 512

---

system: Burkholderia cenocepacia; test: Antimicrobial activity against Burkholderia cenocepacia 5007902 expressing beta-lactamase PenB4; assay type: functional
MEASURED_METRIC: MIC
Write the quantity with the unit trailing the number.

Data request: Fill in the blank: the reported MIC of C[C@H]1[C@H](NC(=O)/C(=N\OC(C)(C)C(=O)O)c2csc(N)n2)C(=O)N1S(=O)(=O)O [AZTREONAM] is ____.
Data returned: 16 µg/mL

Data request: Fill in the blank: the reported MIC of CC1(C)S[C@@H]2[C@H](NC(=O)[C@H](N)c3ccc(O)cc3)C(=O)N2[C@H]1C(=O)O [AMOXICILLIN] is ____.
Data returned: 512 µg/mL

Data request: Fill in the blank: the reported MIC of CCN1CCN(C(=O)N[C@@H](C(=O)N[C@@H]2C(=O)N3[C@@H]2SC(C)(C)[C@@H]3C(=O)O)c2ccccc2)C(=O)C1=O [PIPERACILLIN] is ____.
Data returned: 4 µg/mL

Data request: Fill in the blank: the reported MIC of CC1(C)S[C@@H]2[C@H](NC(=O)[C@H](C(=O)O)c3ccsc3)C(=O)N2[C@H]1C(=O)O [TICARCILLIN] is ____.
Data returned: 512 µg/mL

// provenance: ChEMBL document CHEMBL1629643
